B1: DnaJ homolog subfamily C member 5, residues 16 to 77; numbered along this chain, Q9H3Z4 (parent)
chain: LYHVLGLDKNATSDDIKKSYRKLALKYHPDKNPDNPEAADKFKEINNAHAILTDATKRNIYD

variants of: B1; experiment: abundance fitness (aPCA) (normalised: wild type 0, dead -1); higher = more abundant; growth selection in yeast, the domain comes from the species named; conditions: Homo sapiens
Listing: abundance fitness of selected variants

variant-annotation | abundance fitness
K43F | 0.349
I16F | -0.064
T56P | -0.516
D14I | -0.105
I60A | 0.257
A11K | -0.569
